- Tested target: G protein-coupled receptor kinase 5 (Homo sapiens)
- Sequence (P34947 whole entry): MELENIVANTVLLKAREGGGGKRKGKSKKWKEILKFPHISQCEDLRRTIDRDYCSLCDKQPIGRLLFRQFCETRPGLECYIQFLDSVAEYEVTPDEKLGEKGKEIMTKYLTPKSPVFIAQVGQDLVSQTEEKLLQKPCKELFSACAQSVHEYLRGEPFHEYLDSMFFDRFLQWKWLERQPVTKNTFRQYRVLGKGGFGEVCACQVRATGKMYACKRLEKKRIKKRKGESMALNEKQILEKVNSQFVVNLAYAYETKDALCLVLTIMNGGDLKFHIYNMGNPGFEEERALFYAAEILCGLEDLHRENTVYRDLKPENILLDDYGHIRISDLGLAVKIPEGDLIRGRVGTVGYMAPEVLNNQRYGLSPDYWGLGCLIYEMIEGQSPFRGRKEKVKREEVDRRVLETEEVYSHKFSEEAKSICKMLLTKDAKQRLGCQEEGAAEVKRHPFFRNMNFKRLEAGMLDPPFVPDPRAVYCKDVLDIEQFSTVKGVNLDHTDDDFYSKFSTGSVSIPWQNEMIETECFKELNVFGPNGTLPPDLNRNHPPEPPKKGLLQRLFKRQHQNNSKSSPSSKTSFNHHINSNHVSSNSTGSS
pKi: −log10 of the molar value.
Reported endpoint: pKi

query: I would be grateful if you could share the reported pKi for O=C(CNc1cccc(C(=O)Nc2ccccc2)c1)N/N=C/c1ccncc1 .
result: < 5.00

###

- Tested target: Protein-serine/threonine kinase (Sus scrofa) (UniProt F1RUX3)
- Sequence (whole entry): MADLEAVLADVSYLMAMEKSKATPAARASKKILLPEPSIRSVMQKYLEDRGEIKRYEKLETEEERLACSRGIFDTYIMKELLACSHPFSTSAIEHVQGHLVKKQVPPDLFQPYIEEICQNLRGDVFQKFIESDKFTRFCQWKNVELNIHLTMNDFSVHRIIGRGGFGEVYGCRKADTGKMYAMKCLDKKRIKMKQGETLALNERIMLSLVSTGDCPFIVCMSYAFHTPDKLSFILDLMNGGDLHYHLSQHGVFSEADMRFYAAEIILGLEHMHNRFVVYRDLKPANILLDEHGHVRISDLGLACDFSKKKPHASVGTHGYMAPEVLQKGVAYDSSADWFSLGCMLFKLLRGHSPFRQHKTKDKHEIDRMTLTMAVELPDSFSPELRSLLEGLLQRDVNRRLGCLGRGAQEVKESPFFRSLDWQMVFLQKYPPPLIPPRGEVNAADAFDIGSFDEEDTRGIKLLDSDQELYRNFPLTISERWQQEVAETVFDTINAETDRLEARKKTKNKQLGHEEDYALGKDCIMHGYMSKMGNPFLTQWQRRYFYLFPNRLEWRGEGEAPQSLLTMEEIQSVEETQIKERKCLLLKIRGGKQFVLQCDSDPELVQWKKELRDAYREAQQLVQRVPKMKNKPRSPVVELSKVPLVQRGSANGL
- Procedure details: Inhibition of GRK2 in porcine trabecular meshwork cells assessed as F-actin depolymerization at 50 uM after 20 mins by Alexa-fluor 488-labelled phalloidin/DAPI staining assay relative to control
Calls of active or inactive are those of the source. The calls are words filed in the database; no cut-off is given here.
Would you mind answering with one of these outcomes? 1 (active), 0 (inactive)

# example entries with known answers
- CNC(=O)c1cccc(NCC(=O)N/N=C/c2c(Cl)cncc2Cl)c1: 0
- O=C(CNc1cccc(C(=O)Nc2ccccc2)c1)N/N=C/c1ccncc1: 1
- O=C(CNc1ccc(Oc2ccccc2)cc1)N/N=C/c1c(Cl)cncc1Cl: 0
- O=C(CNc1cccc(C(=O)Nc2ccccc2)c1)N/N=C/c1c(Cl)cncc1Cl: 1
- COc1cc(/C=N/NC(=O)CNc2cccc(Cl)c2)nc(OC)n1: 0

query: Recorded test call requested for O=C(CNc1cccc(C(=O)NCCN2CCOCC2)c1)N/N=C/c1c(Cl)cncc1Cl
result: 0

query: And what about the compound COc1ccc(Oc2cccc(NCC(=O)NN=Cc3ccncc3)c2)cc1 (mixture of isomers) ?
result: 0

query: And what about the compound O=C(CNc1cccc(C(=O)Nc2cccnc2)c1)N/N=C/c1ccncc1 ?
result: 1

query: And what about the compound C/C(=N\NC(=O)CNc1cccc(C(=O)Nc2ccccc2)c1)c1ccncc1 ?
result: 0
